test method notes: RP, Agilent ZORBAX Eclipse Plus C18, 150 × 2.1 mm, 3.5 µm, 40 °C, 0.3 mL/min, estimated dead time 1.1 min; A: water + 0.1% formic acid; B: acetonitrile + 0.1% formic acid; gradient (min/%B) 0/2 1/2 2/20 16.5/98 22/98
details: stereoisomer not certain
test readout: LC retention time (min)

Worked cases, LC retention time given:
{"compound": "COc1cc(Cc2c(N)nc(N)[nH]c2=O)cc(OC)c1OC", "reading unit": "min", "LC retention time": 5.43}
{"compound": "CC12CCC3C(CC=C4CC(O)CCC43C)C1CCC2=O (stereo unspecified)", "reading unit": "min", "LC retention time": 11.6}
{"compound": "CC12CCC(=O)C=C1CCC1C2CCC2(C)C(O)CCC12 (stereo unspecified)", "reading unit": "min", "LC retention time": 11}
{"compound": "CCCCCCCCCCCC[N+](C)(C)Cc1ccccc1", "reading unit": "min", "LC retention time": 11.6}
{"compound": "c1ccc2c(c1)Nc1ccccc1S2", "reading unit": "min", "LC retention time": 13.1}
{"compound": "Cc1ccnc2c1NC(=O)c1cccnc1N2C1CC1", "reading unit": "min", "LC retention time": 7.3}
{"compound": "Nc1nc2c(ncn2C2CC(O)C(CO)O2)c(=O)[nH]1 (stereo unspecified)", "reading unit": "min", "LC retention time": 4.09}
{"compound": "O=P(c1ccccc1)(c1ccccc1)c1ccccc1", "reading unit": "min", "LC retention time": 10.5}

P. COC1C(OC(C)=O)CC(=O)OC(C)CC=CC=CC(O)C(C)CC(CC=O)C1OC1OC(C)C(OC2CC(C)(O)C(OC(=O)CC(C)C)C(C)O2)C(N(C)C)C1O (stereo unspecified)
Q. Cc1c(NC=O)c(=O)n(-c2ccccc2)n1C
R. CCCCCCCCCCCCCCCC(=O)OCC(COP(=O)([O-])OCC[N+](C)(C)C)OC(=O)CCCC(=O)O (stereo unspecified)
[ask] List items by LC retention time in falling order. To answer, arrange all of the labels according to the requested order.
[reply] R, P, Q

====

test method notes: RP, Agilent ZORBAX Eclipse Plus C18, 150 × 2.1 mm, 3.5 µm, 40 °C, 0.3 mL/min, estimated dead time 1.1 min; A: water + 0.1% formic acid; B: acetonitrile + 0.1% formic acid; gradient (min/%B) 0/2 1/2 2/20 16.5/98 22/98
details: stereoisomer not certain
test readout: LC retention time (min)

Recorded results for 3 compounds are shown here.
{"compound": "CCC(CCC(C)O)COC(=O)C(C#N)=C(c1ccccc1)c1ccccc1 (centres undefined)", "LC retention time [min]": 13.8}
{"compound": "C=C1CC23CCC4C(C)(C(=O)OC5OC(CO)C(O)C(O)C5O)CCCC4(C)C2CCC1(OC1OC(CO)C(O)C(O)C1OC1OC(CO)C(O)C(O)C1O)C3 (centres undefined)", "LC retention time [min]": 8.07}
{"compound": "CCCCCCCCCC[N+](C)(C)Cc1ccccc1", "LC retention time [min]": 10.4}

1. COc1ccc2nc(S(=O)Cc3ncc(C)c(OC)c3C)[nH]c2c1 (centres undefined)
2. CCCCCCCCCCCCCCCCCC[N+](C)(C)C
3. Nc1ncnc2c1ncn2C1CC(O)C(CO)O1 (centres undefined)
4. CCCCC[N+](CCCC)(CCCC)CCCC
[ask] Put the items in sequence by LC retention time, from largest down. List each label, following the requested order.
[reply] 2, 4, 1, 3
(2: 14 min, 4: 9.57 min, 1: 6.46 min, 3: 3.4 min)

I. NC(=O)N1c2ccccc2C2OC2c2ccccc21 (centres undefined)
II. On1nnc2ccccc21
III. Cc1ccccc1NC(=O)NC1CCCCC1
[ask] Which order do these items take when sorted by rising LC retention time? List them. Answer format: the labels, in the requested order.
[reply] II, I, III
(II: 5.24 min, I: 7.59 min, III: 11 min)

P. Oc1ccccc1-c1nc2ccccc2[nH]1
Q. O=C(NCc1ccccc1)NC1CCCCC1
[ask] Short answer wanted: higher LC retention time, P or Q ? Choose, then provide that item's label.
[reply] Q
(Q: 10.3 min, P: 6.22 min)

I. c1ccc(C2CN3CCSC3=N2)cc1 (centres undefined)
II. CCC(CC)COC(=O)C(C)NP(=O)(OCC1OC(C#N)(c2ccc3c(N)ncnn23)C(O)C1O)Oc1ccccc1 (centres undefined)
[ask] Of I and II , which one carries the higher reported LC retention time? Indicate which entry you chose by stating its label.
[reply] II

A. CC(C(=O)O)c1cccc(C(=O)c2ccccc2)c1 (centres undefined)
B. CC(=O)Nc1ccc(S(=O)(=O)Nc2cc(C)on2)cc1
C. CN1C(=O)NC(=O)C1(C)C
[ask] List the 3 entries from lowest LC retention time to highest LC retention time value. Please list the labels according to the requested order.
[reply] C, B, A

P. NC(=O)N1c2ccccc2C=Cc2ccccc21
Q. NCCCCC(NC(CCc1ccccc1)C(=O)O)C(=O)N1CCCC1C(=O)O (centres undefined)
[ask] Out of P and Q , name the one with the higher LC retention time. Pick one and reply with its label.
[reply] P
